system: cocklebur; assay: Test B pre-/postemergence herbicide test; type: in vivo, Xanthium strumarium; conditions: Postemergence, 500 g ai/ha; scale 0 (no effect) to 100 (complete control)
parameter measured: Cocklebur plant response rating

INSERT INTO assay_data (mol_smiles, study_target, reported_value) VALUES
  ('Cc1nn(C(C)(C)C)nc1C(=O)Nc1cccc(C(=O)N2CC=CC2)c1', 'cocklebur', 60),
  ('CC(C)(C)n1nc(Br)c(C(=O)Nc2cccc(C(=O)NC3CC3)c2)n1', 'cocklebur', 20),
  ('C=CCNC(=O)c1cccc(NC(=O)c2nn(C(C)(C)C)nc2CC)c1', 'cocklebur', 70),
  ('C=CCNC(=O)c1ccc(F)c(N(C(C)=O)C(=O)c2cc(C(C)(C)C)nn2CC)c1', 'cocklebur', 80),
  ('Cc1nn(C(C)C)nc1C(=O)Nc1cccc(C(=O)N2CC=CC2)c1', 'cocklebur', 50),
  ('Cc1nn(C(C)C)nc1C(=O)Nc1cccc(C(=O)N(C)C)c1', 'cocklebur', 30),
  ('CCNC(=O)c1cccc(NC(=O)c2nn(C(C)(C)C)nc2Br)c1', 'cocklebur', 70),
  ('CCN(CC)C(=O)c1ccnc(NC(=O)c2nn(C(C)(C)C)nc2C)c1', 'cocklebur', 20);
